EXPERIMENT_NOTES: inhibitors of SNCA 5'UTR-driven reporter translation, confirmation, H4 neuroglioma cells, luminescence (AID 1988)
Assay type: functional, cell-based
Activity calls are given as the source filed them.
Parameter EC50: see the listing below.

COMPOUND	EC50
CCC(C)Nc1nc(N)c([N+](=O)[O-])c(NC2CCCCC2)n1 (configuration not stated)	9.77 µM (active)
Oc1ccc(Cl)cc1-c1cc(C(F)(F)C(F)F)nc(-c2ccccc2)n1	> 120 µM (not active)
NS(=O)(=O)c1ccc(NC2=CC(=O)C(=O)c3ccccc32)cc1	8.45 µM (active)
Cc1cc(C(=O)Nc2ccc(Cl)cc2)c(C)n1-c1ccccc1	< 0.1 µM (active)
CC1=CC(C)(C)Nc2ccccc21	> 120 µM (not active)
Cc1nc(C(=O)O)nn1-c1ccc([N+](=O)[O-])cc1	> 120 µM (not active)
C=CCOC(=O)c1[nH]c2c(c1C)C(=O)CC(c1ccco1)C2 (configuration not stated)	< 0.1 µM (active)

====

AC50, Cytochrome P450 2D6 (Homo sapiens): measured values
QUANTITY_NAME: AC50

SMILES_REPR	RESULT_VALUE
CC(C)(C)NC(=O)CSC(=Nc1ccc(F)cc1)NC#N	25.1 µM (inconclusive)
COc1ccc(Cn2c(N)c(C(=O)NCc3ccco3)c3nc4ccccc4nc32)cc1	14.1 µM (inconclusive)
C[C@@H](/C=C\c1cccc(Oc2ccc(F)cc2)c1)N(O)C(N)=O	10 µM (inconclusive)
CCc1noc(N)c1C(=O)Nc1ccc(F)c(Cl)c1	22.4 µM (inconclusive)
CCCNC(=O)CSc1nc(-c2cccs2)cc(C(F)(F)F)n1	3.16 µM (inconclusive)
c1csc(CN2CC3(CCNCC3)C2)n1	39.8 µM (inconclusive)
CC(C)N1CCC(=NNC(=O)c2ccc(Br)o2)CC1	10 µM (inconclusive)
CC(=O)Nc1ccc(NC(=O)c2ccccc2CC[N+](=O)[O-])cc1	14.1 µM (inconclusive)
C[C@@H](N)[C@@H](C)Cc1ccccc1	3.98 µM (inconclusive)
COC(=O)c1ccccc1NC(=O)c1cc2nc(C3CC3)cc(C(F)(F)F)n2n1	3.16 µM (inconclusive)
N#Cc1ccc(CN2CC3(CCN(C(=O)c4cc(C(F)(F)F)cc(C(F)(F)F)c4)CC3)C2)cc1	31.6 µM (inconclusive)

====

In this section we review reported AC50 values for a set of molecules.
EXPERIMENT_NOTES: control 3'UTR Renilla luciferase suppression, dose response, counter-screen for Shn3 inhibitor project, cell-based, Clone20-Shn3RL, cherry-picked (AID 624133)
Format: functional
Active and inactive are the calls of the source.

MOLECULE	AC50
CCn1c(=O)c(C(=O)Nc2nc3ccccc3[nH]2)c(O)c2ccccc21	4.17 µM (active)
CC(=O)N1CCN(c2ccc(NC(=O)c3ccc([N+](=O)[O-])o3)cc2Cl)CC1	11.2 µM (active)
Cc1oc(-c2ccc(Cl)cc2)nc1C[S+]([O-])CC(=O)NCCCN1CCN(Cc2ccccc2)CC1 (configuration not stated)	4.29 µM (active)
O=C(Nc1ccc(Cc2ccncc2)cc1)c1ccc([N+](=O)[O-])o1	13.9 µM (active)
Cc1ccc(CNC(=O)c2cc(-c3ccccc3C)nn2CC2CC(c3cccnc3)=NO2)cc1 (configuration not stated)	29 µM (active)
COC(=O)C1=C(c2ccc(OCc3ccccc3)cc2)C[C@@H]2CC[C@H]1N2C(=O)NCCCCc1ccccc1	25.6 µM (active)
O=C(c1ccccc1)C(CN1CCCC1)c1ccccc1 (configuration not stated)	6.34 µM (active)
